# TEST TARGET: Inhibitor of NF-kappa-B kinase (IKK) (Homo sapiens, UniProt O14920+O15111+Q9Y6K9)
# Sequence (O14920 whole entry): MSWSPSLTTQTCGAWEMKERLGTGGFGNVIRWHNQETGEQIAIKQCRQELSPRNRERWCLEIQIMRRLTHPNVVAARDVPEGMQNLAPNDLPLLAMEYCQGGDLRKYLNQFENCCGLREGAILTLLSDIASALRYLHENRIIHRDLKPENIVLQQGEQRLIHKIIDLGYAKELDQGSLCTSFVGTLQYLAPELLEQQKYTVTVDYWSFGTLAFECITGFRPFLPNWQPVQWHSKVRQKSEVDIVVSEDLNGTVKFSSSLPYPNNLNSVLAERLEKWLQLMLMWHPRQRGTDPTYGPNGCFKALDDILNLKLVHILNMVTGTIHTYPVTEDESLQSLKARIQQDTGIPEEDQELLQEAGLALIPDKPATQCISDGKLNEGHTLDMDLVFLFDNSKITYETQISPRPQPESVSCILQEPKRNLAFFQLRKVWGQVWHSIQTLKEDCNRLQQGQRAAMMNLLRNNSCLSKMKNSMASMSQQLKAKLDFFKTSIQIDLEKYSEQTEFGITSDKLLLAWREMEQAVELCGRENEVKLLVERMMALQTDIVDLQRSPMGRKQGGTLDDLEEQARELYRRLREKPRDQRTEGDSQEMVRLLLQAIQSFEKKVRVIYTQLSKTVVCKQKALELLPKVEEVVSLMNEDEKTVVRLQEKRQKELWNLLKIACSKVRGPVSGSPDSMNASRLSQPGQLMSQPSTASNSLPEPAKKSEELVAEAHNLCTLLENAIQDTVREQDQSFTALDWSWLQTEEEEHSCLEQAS
# Sequence (O15111 whole entry): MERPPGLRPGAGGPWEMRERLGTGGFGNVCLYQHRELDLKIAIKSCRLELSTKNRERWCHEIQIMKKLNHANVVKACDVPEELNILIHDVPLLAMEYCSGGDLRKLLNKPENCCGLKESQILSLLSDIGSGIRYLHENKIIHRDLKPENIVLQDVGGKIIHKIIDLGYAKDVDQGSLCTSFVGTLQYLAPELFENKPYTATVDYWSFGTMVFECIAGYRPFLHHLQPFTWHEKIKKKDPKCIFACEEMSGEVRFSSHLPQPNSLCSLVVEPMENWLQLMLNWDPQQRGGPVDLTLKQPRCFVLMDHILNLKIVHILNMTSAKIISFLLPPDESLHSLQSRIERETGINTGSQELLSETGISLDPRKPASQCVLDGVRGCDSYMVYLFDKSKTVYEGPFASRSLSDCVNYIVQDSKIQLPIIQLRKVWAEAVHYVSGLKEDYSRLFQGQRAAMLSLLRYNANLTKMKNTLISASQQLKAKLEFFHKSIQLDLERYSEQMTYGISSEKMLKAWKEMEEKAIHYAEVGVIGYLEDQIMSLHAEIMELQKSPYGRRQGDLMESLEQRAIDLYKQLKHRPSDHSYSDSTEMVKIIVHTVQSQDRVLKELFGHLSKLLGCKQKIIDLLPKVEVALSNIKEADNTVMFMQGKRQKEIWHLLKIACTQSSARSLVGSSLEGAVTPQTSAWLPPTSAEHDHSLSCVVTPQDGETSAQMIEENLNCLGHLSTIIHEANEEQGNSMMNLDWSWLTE
# Sequence (Q9Y6K9 whole entry): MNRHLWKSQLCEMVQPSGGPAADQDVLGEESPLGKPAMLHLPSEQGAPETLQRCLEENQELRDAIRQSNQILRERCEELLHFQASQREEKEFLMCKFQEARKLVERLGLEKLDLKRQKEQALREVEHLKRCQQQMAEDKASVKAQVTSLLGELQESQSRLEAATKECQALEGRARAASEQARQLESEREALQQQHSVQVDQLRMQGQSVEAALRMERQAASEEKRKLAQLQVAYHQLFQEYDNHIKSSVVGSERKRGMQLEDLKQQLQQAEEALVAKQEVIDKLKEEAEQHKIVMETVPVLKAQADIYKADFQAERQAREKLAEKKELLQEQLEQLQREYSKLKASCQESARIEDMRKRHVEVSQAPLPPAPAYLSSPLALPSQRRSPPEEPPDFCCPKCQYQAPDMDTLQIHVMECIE
# PROTOCOL DESCRIPTION: Inhibition of LPS-induced TNFalpha release from human PBMC
# Format: functional
RESULT TYPE: pIC50
One number for each entry, as −log10 of the molar value.

**Query** Given `O=C(c1ccc(Nc2nccc(-c3cc4ccccc4s3)n2)cc1)N1CCC(N2CCCC2)CC1` , state its recorded pIC50.
**Result** 6.52

---

# TEST TARGET: Inhibitor of nuclear factor kappa-B kinase subunit alpha (Homo sapiens, UniProt O15111)
# Sequence (O15111 whole entry): as the sequence (O15111 whole entry) above
# PROTOCOL DESCRIPTION: Inhibitory activity against IKK1
pIC50: −log10 of the molar value.
pIC50 below 6 gives Not met; pIC50 at or above it gives Met.

| SMILES ENTRY | TEST TARGET | LABEL |
| --- | --- | --- |
| O=C(O)c1ccc(Nc2nccc(-c3cc4ccccc4s3)n2)cc1 | Inhibitor of nuclear factor kappa-B kinase subunit alpha (Homo sapiens, UniProt O15111) | Not met |
| COc1cc(Nc2nccc(-c3cc4ccccc4s3)n2)ccc1C(=O)N1CCC(N2CCCC2)CC1 | Inhibitor of nuclear factor kappa-B kinase subunit alpha (Homo sapiens, UniProt O15111) | Met |
| CC(C)(N)C#Cc1ccc(-c2ccnc(Nc3ccc(C(=O)N4CCC(N5CCCC5)CC4)cc3)n2)s1 | Inhibitor of nuclear factor kappa-B kinase subunit alpha (Homo sapiens, UniProt O15111) | Met |

**Query** Answer whether pIC50 of `NCCNC(=O)c1ccc(Nc2nccc(-c3cc4ccccc4s3)n2)cc1` is greater than or equal to 6.
**Result** Not met

**Query** Answer whether pIC50 of `O=C(c1ccc(Nc2nccc(-c3ccc(CCCCO)s3)n2)cc1)N1CCC(N2CCCC2)CC1` is greater than or equal to 6.
**Result** Met

**Query** Answer whether pIC50 of `CC(C)(N)CCc1ccc(-c2ccnc(Nc3ccc(C(=O)N4CCC(N5CCCC5)CC4)cc3)n2)s1` is greater than or equal to 6.
**Result** Met

**Query** Answer whether pIC50 of `CN(C)C1CCN(C(=O)c2ccc(Nc3nccc(-c4cc5ccccc5s4)n3)cc2)CC1` is greater than or equal to 6.
**Result** Met

---

# TEST TARGET: Inhibitor of NF-kappa-B kinase (IKK) (Homo sapiens, UniProt O14920+O15111+Q9Y6K9)
# PROTOCOL DESCRIPTION: Inhibition of TNF-alpha-stimulated IkappaBalpha degradation
# Format: functional
// classify: if (IC50 < 5000 nM) met else not met

| SMILES ENTRY | LABEL |
| --- | --- |
| O=C(c1ccc(Nc2nccc(-c3cc4ccccc4s3)n2)cc1)N1CCCC1 | not met |
| O=C(c1ccc(Nc2nccc(-c3ccc(CCCCO)s3)n2)cc1)N1CCC(N2CCCC2)CC1 | met |
| O=C(O)c1ccc(Nc2nccc(-c3cc4ccccc4s3)n2)cc1 | not met |
| CC(C)(O)CCc1ccc(-c2ccnc(Nc3ccc(C(=O)N4CCC(N5CCCC5)CC4)cc3)n2)s1 | met |
| COCCCc1ccc(-c2ccnc(Nc3ccc(C(=O)N4CCC(N5CCCC5)CC4)cc3)n2)s1 | met |
| O=C(c1ccc(Nc2nccc(-c3cc4ccccc4s3)n2)cc1)N1CCC(N2CCCC2)CC1 | met |

Would you kindly look at the next entry?
**Query** Bench note: check whether `CN(C)C1CCN(C(=O)c2ccc(Nc3nccc(-c4cc5ccccc5s4)n3)cc2)CC1` shows IC50 below 5000 nM
**Result** met

---

For each of the compounds below, state its IC50.
# TEST TARGET: Inhibitor of nuclear factor kappa-B kinase subunit alpha (Homo sapiens, UniProt O15111)
# PROTOCOL DESCRIPTION: Inhibitory activity against IKK1
Numbers only, in µM.

Record IC50 per entry; entries follow.
1. CCC(N)(CC)CCc1ccc(-c2ccnc(Nc3ccc(C(=O)N4CCC(N5CCCC5)CC4)cc3)n2)s1
2. O=C(c1ccc(Nc2nccc(-c3cc4ccccc4s3)n2)cc1)N1CCC(N2CCCC2)CC1
3. O=C(NCCN1CCCC1)c1ccc(Nc2nccc(-c3cc4ccccc4s3)n2)cc1
4. CC(=O)NC(C)(C)CCc1ccc(-c2ccnc(Nc3ccc(C(=O)N4CCC(N5CCCC5)CC4)cc3)n2)s1
5. O=C(c1ccc(Nc2nccc(-c3cc4ccccc4s3)n2)cc1)N1CCCC1
6. O=C(c1ccc(Nc2nccc(-c3cc4ccccc4s3)n2)cc1Cl)N1CCC(N2CCCC2)CC1

**Result**
0.03
0.2
1.2
30
3.8
0.4

**Query** Given `CN(C)CCNC(=O)c1ccc(Nc2nccc(-c3cc4ccccc4s3)n2)cc1` , state its recorded IC50.
**Result** 1.2

---

# TEST TARGET: Inhibitor of NF-kappa-B kinase (IKK) (Homo sapiens, UniProt O14920+O15111+Q9Y6K9)
# PROTOCOL DESCRIPTION: Inhibition of TNF-alpha-stimulated expression of E-selectin in HUVEC cells
# Assay type: functional, cell-based
For each of the molecules below, state its IC50.
Give bare numbers, in nM.

| SMILES ENTRY | RESULT TYPE | QUANTITATIVE RESULT |
| --- | --- | --- |
| O=C(O)c1ccc(Nc2nccc(-c3cc4ccccc4s3)n2)cc1 | IC50 | 50000 |
| O=C(c1ccc(Nc2nccc(-c3ccc(CCCCO)s3)n2)cc1)N1CCC(N2CCCC2)CC1 | IC50 | 200 |
| CN(C)C1CCN(C(=O)c2ccc(Nc3nccc(-c4cc5ccccc5s4)n3)cc2)CC1 | IC50 | 300 |
| COCCCc1ccc(-c2ccnc(Nc3ccc(C(=O)N4CCC(N5CCCC5)CC4)cc3)n2)s1 | IC50 | 400 |
| O=C(c1ccc(Nc2nccc(-c3cc4ccccc4s3)n2)cc1)N1CCC(N2CCCC2)CC1 | IC50 | 500 |

Record IC50 per entry; entries follow.
1. CN(C)CCNC(=O)c1ccc(Nc2nccc(-c3cc4ccccc4s3)n2)cc1
2. CC(C)(O)CCc1ccc(-c2ccnc(Nc3ccc(C(=O)N4CCC(N5CCCC5)CC4)cc3)n2)s1

**Result**
1. 500
2. 450

**Query** Given `O=C(c1ccc(Nc2nccc(-c3cc4ccccc4s3)n2)cc1)N1CCCC1` , state its recorded IC50.
**Result** 2000

---

# TEST TARGET: Inhibitor of NF-kappa-B kinase (IKK) (Homo sapiens, UniProt O14920+O15111+Q9Y6K9)
# PROTOCOL DESCRIPTION: Inhibitory activity against IKK complex isolated from HeLa cells
# Format: cell-based
For each of the compounds below, state its pIC50.
Answers are plain numbers, as −log10 of the molar value.

Record pIC50 per entry; entries follow.
1. CC(C)(O)CCc1ccc(-c2ccnc(Nc3ccc(C(=O)N4CCC(N5CCCC5)CC4)cc3)n2)s1
2. NCCNC(=O)c1ccc(Nc2nccc(-c3cc4ccccc4s3)n2)cc1

**Result**
[7.30, 5.36]

---

# TEST TARGET: Inhibitor of NF-kappa-B kinase (IKK) (Homo sapiens, UniProt O14920+O15111+Q9Y6K9)
# PROTOCOL DESCRIPTION: Inhibition of TNF-alpha-stimulated expression of ICAM1 in HUVEC cells
# Type: functional, cell-based
RESULT TYPE: pIC50
Numbers only, as −log10 of the molar value.

| SMILES ENTRY | QUANTITATIVE RESULT |
| --- | --- |
| CN(C)CCNC(=O)c1ccc(Nc2nccc(-c3cc4ccccc4s3)n2)cc1 | 6.30 |
| O=C(c1ccc(Nc2nccc(-c3cc4ccccc4s3)n2)cc1)N1CCCC1 | 5.70 |
| CC(C)(O)CCc1ccc(-c2ccnc(Nc3ccc(C(=O)N4CCC(N5CCCC5)CC4)cc3)n2)s1 | 6.30 |
| CN(C)C1CCN(C(=O)c2ccc(Nc3nccc(-c4cc5ccccc5s4)n3)cc2)CC1 | 6.40 |
| O=C(c1ccc(Nc2nccc(-c3cc4ccccc4s3)n2)cc1)N1CCC(N2CCCC2)CC1 | 6.52 |
| O=C(c1ccc(Nc2nccc(-c3ccc(CCCCO)s3)n2)cc1)N1CCC(N2CCCC2)CC1 | 6.70 |

Record pIC50 per entry; entries follow.
1. COCCCc1ccc(-c2ccnc(Nc3ccc(C(=O)N4CCC(N5CCCC5)CC4)cc3)n2)s1
2. O=C(O)c1ccc(Nc2nccc(-c3cc4ccccc4s3)n2)cc1

**Result**
[6.22, 4.30]

---

# TEST TARGET: Inhibitor of NF-kappa-B kinase (IKK) (Homo sapiens, UniProt O14920+O15111+Q9Y6K9)
# PROTOCOL DESCRIPTION: Inhibition of TNF-alpha-stimulated expression of VCAM1 in HUVEC cells
# Format: functional, cell-based
RESULT TYPE: pIC50
One number for each entry, as −log10 of the molar value.

Some molecules with recorded pIC50:
| SMILES ENTRY | QUANTITATIVE RESULT |
| --- | --- |
| CN(C)CCNC(=O)c1ccc(Nc2nccc(-c3cc4ccccc4s3)n2)cc1 | 6.30 |
| CC(C)(O)CCc1ccc(-c2ccnc(Nc3ccc(C(=O)N4CCC(N5CCCC5)CC4)cc3)n2)s1 | 6.22 |
| CN(C)C1CCN(C(=O)c2ccc(Nc3nccc(-c4cc5ccccc5s4)n3)cc2)CC1 | 6.40 |

Record pIC50 per entry; entries follow.
1. O=C(c1ccc(Nc2nccc(-c3cc4ccccc4s3)n2)cc1)N1CCCC1
2. O=C(c1ccc(Nc2nccc(-c3ccc(CCCCO)s3)n2)cc1)N1CCC(N2CCCC2)CC1
3. O=C(O)c1ccc(Nc2nccc(-c3cc4ccccc4s3)n2)cc1
4. O=C(c1ccc(Nc2nccc(-c3cc4ccccc4s3)n2)cc1)N1CCC(N2CCCC2)CC1
5. COCCCc1ccc(-c2ccnc(Nc3ccc(C(=O)N4CCC(N5CCCC5)CC4)cc3)n2)s1

**Result**
1. 5.70
2. 6.70
3. 4.30
4. 6.52
5. 6.30
